- System: Mycobacterium tuberculosis Erdman (pMV306hsp+LuxG13)
- assay: GRinf, normalised growth-rate inhibition at infinite dose (GR value (unitless, negative = killing)); higher = less potent
- cond: growth medium: butyrate 5 mM; time point: terminal time point

compound: COc1nc2ccc(Br)cc2cc1[C@@H](c1ccccc1)[C@@](O)(CCN(C)C)c1cccc2ccccc12 [bedaquiline] + CC(C)=CCC/C(C)=C/CNCCNC1C2CC3CC(C2)CC1C3 [SQ109]
experimental_system: Mycobacterium tuberculosis Erdman (pMV306hsp+LuxG13)
GRinf: -0.0824

compound: NC(=O)c1cnccn1 [pyrazinamide] + CC(=O)NC[C@H]1CN(c2ccc(N3CCSCC3)c(F)c2)C(=O)O1 [sutezolid]
experimental_system: Mycobacterium tuberculosis Erdman (pMV306hsp+LuxG13)
GRinf: 0.124

compound: COc1c(N2C[C@@H]3CCCN[C@@H]3C2)c(F)cc2c(=O)c(C(=O)O)cn(C3CC3)c12 [moxifloxacin] + CC(=O)NC[C@H]1CN(c2ccc(N3CCSCC3)c(F)c2)C(=O)O1
experimental_system: Mycobacterium tuberculosis Erdman (pMV306hsp+LuxG13)
GRinf: 0.0229

compound: CC[C@@H](CO)NCCN[C@@H](CC)CO [ethambutol] + CC(=O)NC[C@H]1CN(c2ccc(N3CCSCC3)c(F)c2)C(=O)O1 [sutezolid]
experimental_system: Mycobacterium tuberculosis Erdman (pMV306hsp+LuxG13)
GRinf: 0.0337
